System: BRCA2
assayComment: 3' UTR reporter interaction score (median-centred robust z-score of log2 firefly/Renilla activity); higher = less repression of the 3' UTR reporter
conditionSummary: HEK293T; 48 h
Each entry below carries its reported 3' UTR reporter interaction score.
Number, no unit, nothing else.

• UCUCACACAGAAAUCGCACCCGUC = 1
• UAAGGCACCCUUCUGAGUAGA = 0.5
• UUUGUGACCUGGUCCACUAACC = -0.491

Just so you know, measured 3' UTR reporter interaction score for CAAAGUUUAAGAUCCUUGAAGU came out at 0.573

Just so you know, measured 3' UTR reporter interaction score for UAAAGUGCUGACAGUGCAGAU came out at 0.319

* * *

System: MYC
assayComment: 3' UTR reporter interaction score (median-centred robust z-score of log2 firefly/Renilla activity); higher = less repression of the 3' UTR reporter
conditionSummary: HEK293T; 48 h
Each entry below carries its reported 3' UTR reporter interaction score.

- UCGUGUCUUGUGUUGCAGCCG: -0.116
- CAAAGUGCCUCCCUUUAGAGUGU: -0.351
- AUGAUCCAGGAACCUGCCUCU: 0.0276
- UCACAAUGCUGACACUCAAACUGCUGAC: 0.447
- UAAGGUGCAUCUAGUGCAGAUA: 0.199
- CUGGACUUAGGGUCAGAAGGCC: -0.781

Item UAAAGUAAAUAUGCACCAAAA ; assay system MYC; 3' UTR reporter interaction score reported as 0.043

Item AGUGUGGCUUUCUUAGAGC ; assay system MYC; 3' UTR reporter interaction score reported as -0.501

* * *

Each entry below carries its reported 3' UTR reporter interaction score.
System: PHOX2B
assayComment: 3' UTR reporter interaction score (median-centred robust z-score of log2 firefly/Renilla activity); higher = less repression of the 3' UTR reporter
conditionSummary: HEK293T; 48 h
Number, no unit, nothing else.

• UGGGCGUAUCUGUAUGCUA = 2.15
• CAAAGAAUUCUCCUUUUGGGCUU = -0.413
• UAAUACUGUCUGGUAAAACCGU = -0.137

Just so you know, measured 3' UTR reporter interaction score for AGACCCUGGUCUGCACUCUAU came out at -0.928

Just so you know, measured 3' UTR reporter interaction score for AACUGGCCUACAAAGUCCCAG came out at -0.335

Just so you know, measured 3' UTR reporter interaction score for UAUACAAGGGCAAGCUCUCUGU came out at 0.912

Just so you know, measured 3' UTR reporter interaction score for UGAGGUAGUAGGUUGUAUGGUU came out at -0.072

Just so you know, measured 3' UTR reporter interaction score for AUCAUAGAGGAAAAUCCACGU came out at 0.628

Just so you know, measured 3' UTR reporter interaction score for CAUCUUACCGGACAGUGCUGGA came out at 0.65

Just so you know, measured 3' UTR reporter interaction score for ACUGCCCUAAGUGCUCCUUCU came out at 0.63

Just so you know, measured 3' UTR reporter interaction score for UCAGGCUCAGUCCCCUCCCGAU came out at 0.106

Just so you know, measured 3' UTR reporter interaction score for AAAAGUGCUUACAGUGCAGGUAGC came out at -0.496

Just so you know, measured 3' UTR reporter interaction score for UCCCUGAGACCCUAACUUGUGA came out at -1.65

Just so you know, measured 3' UTR reporter interaction score for ACCCUAUCAAUAUUGUCUCUGC came out at -0.0439

Just so you know, measured 3' UTR reporter interaction score for AAGUGCUUCCUUUUAGAGGGUU came out at 0.633
